These data points were gathered from the supplement of paper PMC4954754.

system: HEK293T-Rex ERSE-FLuc; test: maximal ERSE-FLuc activation from dose-response fit, relative to thapsigargin (% of thapsigargin); higher = stronger activation; conditions: 18 h
If the reported maximal ERSE-FLuc activation equals or exceeds 30, assign label 1. If not, assign label 0.

O=C(NCCc1ccccc1)c1cc(-c2cccs2)on1	label 1
C=CCNC(=O)c1cc(-c2cccs2)on1	label 1
CC(=O)Oc1ccc2cc(NC(=O)c3ccc(C)cc3)c(=O)oc2c1	label 0

Task item: Has N#Cc1c(NC(=O)c2cnccn2)sc2c1CCCC2 a recorded maximal ERSE-FLuc activation greater than or equal to 30?
Reply: label 0

Task item: Has COc1ccc(C2=Nn3c(nnc3-c3ccc(OC)cc3)SC2)cc1 a recorded maximal ERSE-FLuc activation greater than or equal to 30?
Reply: label 0

Task item: Has Nc1ccc2nc(-c3ccc(Br)cc3)[nH]c2c1 a recorded maximal ERSE-FLuc activation greater than or equal to 30?
Reply: label 1

Task item: Has Cc1cc2nc(-c3ccc(SCC#N)nc3)[nH]c2cc1C a recorded maximal ERSE-FLuc activation greater than or equal to 30?
Reply: label 0

Task item: Has CCCCNC(=O)c1cc(-c2cccs2)on1 a recorded maximal ERSE-FLuc activation greater than or equal to 30?
Reply: label 1

Task item: Has Cc1ccc(Nc2nc(N)c3ccccc3n2)cc1Cl a recorded maximal ERSE-FLuc activation greater than or equal to 30?
Reply: label 1
